- TARGET OR SYSTEM: c-Met (cytoplasmic domain) (Homo sapiens)
- Construct: 10 ng/mL c-Met (cytoplasmic domain, Invitrogen Corporation #PV3143); purchased Invitrogen Corporation PV3143
- Sequence (P08581 956-1390 limits assumed): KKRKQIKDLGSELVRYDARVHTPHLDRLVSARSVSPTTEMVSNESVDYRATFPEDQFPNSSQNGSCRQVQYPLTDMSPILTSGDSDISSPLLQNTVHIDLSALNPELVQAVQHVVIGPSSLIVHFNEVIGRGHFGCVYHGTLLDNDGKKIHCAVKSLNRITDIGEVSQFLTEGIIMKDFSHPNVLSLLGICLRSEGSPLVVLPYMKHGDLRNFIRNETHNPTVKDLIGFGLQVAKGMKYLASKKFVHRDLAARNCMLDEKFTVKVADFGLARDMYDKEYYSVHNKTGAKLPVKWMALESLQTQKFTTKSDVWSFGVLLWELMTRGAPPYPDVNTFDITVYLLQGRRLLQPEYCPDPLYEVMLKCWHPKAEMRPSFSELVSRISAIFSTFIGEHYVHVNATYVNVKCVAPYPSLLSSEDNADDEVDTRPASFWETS
- ASSAY COMMENT: c-Met Kinase Assay (same methods as for ALK, with modifications)
- Assay type: biochemical
- CONDITION SUMMARY: 1 μM ATP (Km level), 10 ng/mL c-Met; read-out: cMet Activity (c-Met kinase inhibition, IC50 class)
VALUE KIND: IC50

COCCN1CCc2ccc(Nc3ncc(Cl)c(Nc4ccccc4C(=O)NCCN4CCCC4)n3)cc2CC1 = 0.1 to 1 µM
CCCCNC(=O)c1ccccc1Nc1nc(Nc2ccc3c(c2)C(C)(C)CCC(=O)N3)ncc1Cl = 1 to 10 µM
CCN1C(=O)CCCc2cc(Nc3ncc(Cl)c(Nc4ccc(N(C)C)cc4OC)n3)c(OC)cc21 = > 10 µM
COc1cc2c(cc1Nc1ncc(Cl)c(Nc3ccccc3S(=O)(=O)N(C)C)n1)CCC(N1CCOCC1)CC2 (stereo not drawn) = > 10 µM
COCCN1CCc2ccc(Nc3ncc(Cl)c(Nc4c(F)cccc4S(=O)(=O)C(C)C)n3)cc2CC1 = 1 to 10 µM
COc1cc2c(cc1Nc1ncc(Cl)c(Nc3ccccc3S(=O)(=O)N(C)C)n1)CCN(C(=O)C(C)(C)N)CC2 = 1 to 10 µM
CNC(=O)c1cc(Br)cc(F)c1Nc1nc(Nc2ccc3c(c2)CCN(CCOC)CC3)ncc1Cl = < 0.1 µM
COCCN1CCc2ccc(Nc3ncc(Cl)c(Nc4c(F)cccc4OC4CCOCC4)n3)cc2CC1 = 1 to 10 µM
COc1cc2c(cc1Nc1ncc(Cl)c(Nc3ccccc3S(=O)(=O)N3CCCC3)n1)CCN(Cc1ncco1)CC2 = 1 to 10 µM
COc1cc2c(cc1Nc1ncc(Cl)c(Nc3ccccc3OC)n1)CCN(CC(=O)N(C)C)CC2 = > 10 µM
COc1cc2c(cc1Nc1ncc(Cl)c(N[C@@H]3CCCC[C@H]3NS(C)(=O)=O)n1)CCN(CC(=O)N1CCCC1)CC2 = > 10 µM
COc1cc2c(cc1Nc1ncc(Cl)c(Nc3ccc(N4CCOCC4)cc3OC)n1)CCN(CCS(C)(=O)=O)CC2 = > 10 µM
COc1cc2c(cc1Nc1ncc(Cl)c(Nc3ccccc3OC)n1)CCN(CCS(C)(=O)=O)CC2 = > 10 µM
CNC(=O)c1cccc(F)c1Nc1nc(Nc2ccc3c(c2)NCC(NCCOC)CC3(C)C)ncc1Cl (stereo not drawn) = < 0.1 µM
COCC(COC)N1CCc2cc(Nc3ncc(Cl)c(Nc4ccc(C(N)=O)cc4OC)n3)c(OC)cc2CC1 = > 10 µM

====

- TARGET OR SYSTEM: c-Met (cytoplasmic domain) (Homo sapiens)
- Construct: 10 ng/mL c-Met (cytoplasmic domain, Invitrogen Corporation #PV3143); purchased Invitrogen Corporation PV3143
- ASSAY COMMENT: c-Met Kinase Assay (same methods as for ALK, with modifications)
- Type: biochemical
- CONDITION SUMMARY: c-Met kinase inhibition, 1 μM ATP; read-out: cMet Activity
VALUE KIND: IC50

CC1(C)CCC(=O)Nc2cc(Nc3ncc(Cl)c(Nc4ccccc4S(=O)(=O)N4CCC(O)C4)n3)ccc21 (stereo not shown) = < 100 nM
CN(C)CCN1CCCC(C)(C)c2ccc(Nc3ncc(Cl)c(N[C@H]4[C@@H](C(N)=O)[C@@H]5C=C[C@H]4C5)n3)cc21 = < 100 nM
CNC(=O)c1cccc(F)c1Nc1nc(Nc2ccc3c(c2)-n2c(C)cnc2CCC3)ncc1Cl = 1000 to 10000 nM
CCN1CCCOc2cc(Nc3ncc(Cl)c(Nc4c(F)cccc4C(=O)NC)n3)c(F)cc21 = < 100 nM
